FYI, the data here is from PubChem BioAssay AID179.

- Test system: CEM cells HIV-1 protection, formazan growth assay
- assay.explanation: NCI AIDS Antiviral Assay
- condition.context: measured here: growth of uninfected CEM cells
Reported values of IC50 for individual entries

compound: N#CNC(=NCC1CCCO1)Nc1cccnc1 (centres undefined)
unit.info: µM
comparison.operator: =
IC50: 933
//
compound: COC1O[C@H]2[C@H]3[C@@H]1[C@@H](OS(=O)(=O)c1ccc(C)cc1)C(=O)N3C[C@H]2O (some centres undefined)
unit.info: µM
comparison.operator: =
IC50: 141
//
compound: CC(c1ccccc1)N1CC(C)(c2ccccc2)N(O)C(c2ccccc2)C1C (centres undefined)
unit.info: µM
comparison.operator: >
IC50: 18.6
//
compound: O=[N+]([O-])c1ccc(NSc2ccccc2)cc1
unit.info: µM
comparison.operator: =
IC50: 9.33
//
compound: Cc1ccc(S(=O)(=O)NN=C2CCCCCCCCCCC2)cc1
unit.info: µM
comparison.operator: >
IC50: 200
//
compound: O=C(CC/C(CC(=O)c1ccc(Cl)cc1)=N/O)Nc1ccc(Cl)c(Cl)c1
unit.info: µM
comparison.operator: >
IC50: 437
//
compound: CCOC(=O)c1cc2c(nc1N)-c1ncccc1CC2
unit.info: µM
comparison.operator: =
IC50: 0.219
//
compound: CC(C)c1c2[nH]c3ccccc3c2c(C(C)C)c2[nH]c3ccccc3c12
unit.info: µM
comparison.operator: >
IC50: 20
//
compound: Cc1cccc(-c2nnc3s/c(=C\c4ccc5c(c4)OCO5)c(=O)n23)c1
unit.info: µM
comparison.operator: >
IC50: 27.5
//
compound: COc1cc2c(cc1OC)C(=O)N1CCCC1CS2 (centres undefined)
unit.info: µM
comparison.operator: >
IC50: 200
//
compound: CN1CN(c2ccccc2)C2(CCN(Cc3nc4ccccc4s3)CC2)C1=O
unit.info: µM
comparison.operator: =
IC50: 30.9
//
compound: CCOP(=O)(OCC)c1cc(NC(=O)c2cc(NC(=O)c3cc(NC(=O)Nc4cc(C(=O)Nc5cc(C(=O)Nc6cc(P(=O)(OCC)OCC)c7cccc(P(=O)(OCC)OCC)c7c6)n(C)c5)n(C)c4)cn3C)cn2C)cc2c(P(=O)(OCC)OCC)cccc12
unit.info: µM
comparison.operator: >
IC50: 200
//
compound: Cc1ccc(C=Nc2ccc(SSc3ccc(N=Cc4ccc(C)cc4)cc3)cc2)cc1
unit.info: µM
comparison.operator: =
IC50: 26.3
//
compound: Cc1ccc(C(=O)N2CCCCC2)cc1N=NN(C)C
unit.info: µM
comparison.operator: =
IC50: 240
//
compound: NNC(=O)/C(NC(=O)c1ccccc1)=C(\N)c1cccc([N+](=O)[O-])c1
unit.info: µM
comparison.operator: >
IC50: 15.1
//
compound: CCOC(=O)C1=Nc2ccccc2N=C(C2C(=O)C=C(C)OC2=O)C1 (centres undefined)
unit.info: µM
comparison.operator: >
IC50: 200
//
compound: CC1=Nc2nc(=NCCCN(C)C)nc3cccc(n23)N1
unit.info: µM
comparison.operator: >
IC50: 200
//
compound: Cc1nc(N)c(N2CCN(S(=O)(=O)N(Cc3ccccc3)Cc3ccccc3)CC2)c(=O)[nH]1
unit.info: µM
comparison.operator: =
IC50: 120
//
compound: CC(=O)OCC1OC(NC(=S)CCSc2nc3ccccc3c(=O)n2-c2ccccc2)C(OC(C)=O)C(OC(C)=O)C1OC(C)=O (centres undefined)
unit.info: µM
comparison.operator: =
IC50: 28.2

* * *

- System: CEM cells HIV-1 protection, formazan growth assay
- assay.explanation: NCI AIDS Antiviral Assay;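 active = compounds giving half or more protection of infected cells from virus-caused growth loss, again on retest; inactive = the rest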
- Protocol: The ability of compounds to protect human CEM cells from HIV-1 infection is measured as a screen for new compounds capable of inhibiting the HIV virus. Five concentrations of drug were tested on uninfected and infected cells and cell growth was measured using a soluble formazan assay. […] Compounds that provided at least 50% protection were retested. Compounds that provided at least 50% protection on retest were listed as moderately active. […]
Outcomes: active, inactive

molecule: CC(CCc1nc2ccccc2[nH]1)C1CCC2C3CC[C@@H]4C[C@H](O)CC[C@]4(C)C3CC[C@]12C (stereo partly specified)
class: inactive
--
molecule: CSc1c(C(C)=O)c(O)n(-c2ccc(Cl)cc2)c(=O)c1C#N
class: inactive
--
molecule: CC(C)COC(=O)c1ccc(N=Cc2ccc(C=Nc3ccc(C(=O)OCC(C)C)cc3)cc2)cc1
class: inactive
--
molecule: Cc1cccc2c(=O)c([Se]c3coc4c(C)cccc4c3=O)coc12
class: inactive
--
molecule: CCOc1ccc(N2C(=O)/C(=C/c3ccc(N(CCC#N)CCC#N)cc3)N=C2c2cc([N+](=O)[O-])ccc2Cl)cc1
class: inactive
--
molecule: Nc1ccc(S(=O)(=O)Nc2nc3ccccc3nc2N2CCCCCC2)cc1
class: inactive
--
molecule: CC(C)(C)c1ccc(OCCOc2ccc(C(C)(C)C)cc2N)c(N)c1
class: inactive
--
molecule: O=c1oc(-c2ccccc2Br)ns1
class: inactive
--
molecule: O=C(NNC(=O)c1csc(NC(=S)NC2CCCCC2)n1)c1ccccc1
class: inactive
--
molecule: COC1=CC(=O)[C@H]2[C@H](C)C(c3ccccc3)[C@@]2(C)C1=O (stereo partly specified)
class: inactive
--
molecule: O=c1[nH]c(=O)n(C2OC(CF)C(O)C2O)cc1Br (stereo unspecified)
class: inactive
--
molecule: Nc1ccc(Sc2nnc(N)s2)cc1
class: inactive
--
molecule: Cc1sc(N)c(S(=O)(=O)c2ccccc2)c1C
class: active
--
molecule: Cn1c2ccccc2n2c(=O)c(-c3ccc(Cl)cc3)nnc12
class: inactive
--
molecule: CCOP(=O)(OCC)/C(C#N)=C/c1ccoc1
class: inactive
--
molecule: O=C1/C(=C/c2ccc3c(c2)OCO3)SC2C=Nc3ccccc3N12 (stereo unspecified)
class: inactive
--
molecule: N#CCCN(CCC#N)c1ccc(/C=C2\N=C(c3ccccc3)N(c3ccccn3)C2=O)cc1
class: inactive
--
molecule: CC12CN3CC(C)(C1=O)C(=O)C(C)(C3)C2=O
class: inactive
--
molecule: CC1(C)CC(=O)C2=C(C1)OC1=C(CC(C)(C)CC1=O)C2c1ccccc1[N+](=O)[O-] (stereo unspecified)
class: inactive
--
molecule: COC(=O)CCCN(C)c1n[nH]c(N)n1
class: inactive
--
molecule: CCOC(=O)C1(Cc2ccc3c(c2)CCC3)Cc2cc3c(cc2C1)CCC3
class: inactive
--
molecule: COP(=O)(OC)/C(=C\c1cn(C(c2ccccc2)(c2ccccc2)c2ccccc2)cn1)NC(C)=O
class: inactive
--
molecule: N[C@@H](CSSCCO)C(=O)O
class: inactive
--
molecule: O=C(NC1=NCC(CN2CCN(c3ccccc3)CC2)O1)Nc1ccccc1 (stereo unspecified)
class: inactive
--
molecule: CC(=O)c1cccc(N2COC(C)(C)c3nc4ccccc4n3C2)c1
class: inactive
--
molecule: CN1CCN(c2cc3nc(-c4ccc(Cl)cc4)[nH]c3cc2F)CC1
class: inactive
--
molecule: C#CCN(N=O)C(=O)NCCCCC(NC(=O)OCc1ccccc1)C(=O)OCc1ccccc1 (stereo unspecified)
class: inactive
--
molecule: COc1ccc(/C=C/C(=O)c2cc(OC)cc(OC)c2)cc1
class: inactive
--
molecule: CC1(C)CS(=O)(=O)CC(C)(C)C(=N/N)/C1=N\N
class: inactive
--
molecule: C=C(C[N+](C)(C)C)N/N=C/c1oc(-c2ccc(OC)c(OC)c2)c(-c2ccc(OC)c(OC)c2)c1[N+](=O)[O-]
class: inactive
--
molecule: CN(C)c1ccc(/C=C/C=C2\C=Cc3ccccc32)cc1
class: inactive
--
molecule: COc1cc2c(cc1O)C1C(O2)c2c(OC)cc3c(c2OC1(C)C)CCC(C)(C)O3 (stereo unspecified)
class: inactive
--
molecule: COc1cc(/C=C/C2=C(C#N)C(=O)OC2(C)C)ccc1O
class: inactive
--
molecule: CC(C)CC(=O)NC(C(=O)NC(C(=O)NC(CC(C)C)C(O)CC(=O)NC(C)C(=O)NC(CC(C)C)C(O)CC(=O)O)C(C)C)C(C)C (stereo unspecified)
class: active
--
molecule: O=S(=O)(O)c1ccc(O)c(N=Nc2ccc(S(=O)(=O)c3ccc(N=Nc4cc(S(=O)(=O)O)ccc4O)cc3)cc2)c1
class: inactive
--
molecule: Cc1nn(C(=O)c2ccccc2O)c2c1C(c1ccccc1O)SC(N)=N2 (stereo unspecified)
class: inactive
--
molecule: CCOC(=O)c1c(N2CCCC2)ncn(Cc2ccccc2)c1=S
class: inactive
--
molecule: O=S(Cc1ccccc1)/C(=C/n1c(=S)[nH]c2ccccc21)c1ccccc1 (stereo unspecified)
class: inactive
--
molecule: CCCC(CC)c1cc(O)c(O)cc1C(CC)CCC (stereo unspecified)
class: inactive
--
molecule: C1=NCCN=Cc2ccccc2NCCNc2ccccc21
class: inactive
--
molecule: COc1ccc(NC(=O)CC(=O)N2N=C(N(CCC#N)c3ccccc3Cl)CC2c2ccccc2)cc1 (stereo unspecified)
class: inactive
